Source: PubChem BioAssay (NCATS)

- Test system: CP266
- Experiment notes: qHTS profiling for inhibitors of Plasmodium falciparum proliferation (AID 504749); note: nearly all actives have a fitted effect of over 60% in size
- Cond: P. falciparum in erythrocytes, SYBR Green DNA, 72 h; series mostly up to 28.7 µM
Records with an inconclusive call do not appear. Active and inactive are the calls of the source. Calls come from the whole dose curve; as a rule, active = well fitted inhibition curve with a large enough effect; inconclusive = small, poorly fitted or top-dose-only effect; inactive = flat fitted curve, though single readings scatter.
The categories you may choose from are YES = active, NO = inactive

Compound: CC(=O)Oc1ccc2c3c1OC1[C@@H](OC(C)=O)C=C[C@H]4[C@H](C2)N(C)CC[C@]314 (stereo partly drawn)
Study target: CP266
Assigned category: NO

(Q) Status in this test for CC(C)=CC1C(C(=O)OCc2coc(Cc3ccccc3)c2)C1(C)C (stereo not drawn) ?
(A) NO

(Q) Status in this test for C[C@]12CCC3C(CCC4=C(Cl)C(=O)CC[C@@]43C)C1CCC2O (stereo partly drawn) ?
(A) NO

----------
- Study target: Bile acid receptor (Homo sapiens) (UniProt Q96RI1)
- Sequence (Q96RI1 whole entry, looked up): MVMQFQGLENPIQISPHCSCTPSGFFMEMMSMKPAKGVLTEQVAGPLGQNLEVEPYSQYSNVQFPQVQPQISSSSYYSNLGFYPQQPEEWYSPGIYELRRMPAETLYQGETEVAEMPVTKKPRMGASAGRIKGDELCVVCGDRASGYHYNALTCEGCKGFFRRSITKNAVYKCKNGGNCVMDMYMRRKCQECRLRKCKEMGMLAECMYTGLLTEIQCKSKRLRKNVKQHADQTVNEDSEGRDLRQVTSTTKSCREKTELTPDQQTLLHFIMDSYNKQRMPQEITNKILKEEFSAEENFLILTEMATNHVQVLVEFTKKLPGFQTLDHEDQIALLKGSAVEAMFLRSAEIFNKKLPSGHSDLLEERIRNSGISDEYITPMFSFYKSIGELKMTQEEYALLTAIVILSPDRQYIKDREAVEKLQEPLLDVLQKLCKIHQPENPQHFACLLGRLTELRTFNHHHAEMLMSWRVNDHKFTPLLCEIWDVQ
- Experiment notes: qHTS assay for small molecule agonists of farnesoid X receptor signaling (AID 588527);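 note: 0% = vehicle basal and 100% = reference agonist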
- Cond: HEK293T FXR-UAS-bla, beta-lactamase ratio, 16 h; stronger effect = higher value
Records with an inconclusive call do not appear.
Quantity measured: activation (%)
The reply should be a number in %, with the unit left off.

Compound: O=[N+]([O-])c1ccc(CCO)cc1
Display unit: %
Experimental value: -0.12

(Q) Requested read-out: activation. Entry: CCCCC(CC)COC(=O)c1ccc(C(=O)OCC(CC)CCCC)cc1 (stereo not drawn)
(A) 2.72

(Q) Requested read-out: activation. Entry: Cc1ccc(C)o1
(A) 1.14

(Q) Requested read-out: activation. Entry: CC(Oc1cc(Cl)c(Cl)cc1Cl)C(=O)O (stereo not drawn)
(A) -3.32

(Q) Requested read-out: activation. Entry: Cc1cc(C(C)(C)CC(C)(C)C)ccc1OCCOCC[N+](C)(C)Cc1ccccc1
(A) -0.746

(Q) Requested read-out: activation. Entry: Brc1ccc(Br)cc1
(A) -2.5

(Q) Requested read-out: activation. Entry: CCCN(CCOc1c(Cl)cc(Cl)cc1Cl)C(=O)n1ccnc1
(A) 4.58

----------
- Study target: Bile acid receptor (Homo sapiens)
- Experiment notes: qHTS assay for small molecule antagonists of farnesoid X receptor signaling (AID 588526)
- Cond: HEK293T FXR-UAS-bla, beta-lactamase ratio, antagonist mode; series mostly up to 76.7 µM
Inconclusive results are not listed. Activity calls are given as the source filed them. The call rests on the fitted dose curve.
The categories you may choose from are active, inactive

See these solved cases before continuing.
Smiles entry: CCOP(=S)(OCC)SCC(=O)NC(C)C
Study target: Bile acid receptor (Homo sapiens)
Assigned category: inactive
--
Smiles entry: CCOP(=O)(OCC)SCSP(=S)(OCC)OCC
Study target: Bile acid receptor (Homo sapiens)
Assigned category: inactive
--
Smiles entry: CC(C)CCCCCCOC(=O)c1ccccc1C(=O)OCCCCCCC(C)C
Study target: Bile acid receptor (Homo sapiens)
Assigned category: inactive
--
Smiles entry: CCS(=O)(=O)c1cccnc1S(=O)(=O)NC(=O)Nc1nc(OC)cc(OC)n1
Study target: Bile acid receptor (Homo sapiens)
Assigned category: inactive
--
Smiles entry: CCC(CC)Nc1c([N+](=O)[O-])cc(C)c(C)c1[N+](=O)[O-]
Study target: Bile acid receptor (Homo sapiens)
Assigned category: inactive
--
Smiles entry: CCOP(=O)(OCC)SCSC(C)(C)C
Study target: Bile acid receptor (Homo sapiens)
Assigned category: inactive
--
Smiles entry: C(=NC1CCCCC1)=NC1CCCCC1
Study target: Bile acid receptor (Homo sapiens)
Assigned category: inactive
--
Smiles entry: COP(=S)(OC)Oc1ccc([N+](=O)[O-])c(C)c1
Study target: Bile acid receptor (Homo sapiens)
Assigned category: inactive

(Q) Status in this test for CO/N=C(/C1=NOCCO1)c1ccccc1Oc1ncnc(Oc2ccccc2Cl)c1F ?
(A) active

(Q) Status in this test for O=S(=O)(c1ccc(O)cc1)c1ccc(O)cc1 ?
(A) inactive

(Q) Status in this test for C=CC(=O)OCCCCCC(C)C ?
(A) inactive

(Q) Status in this test for O=S(=O)(O)C(F)(F)C(F)(F)C(F)(F)C(F)(F)C(F)(F)C(F)(F)F ?
(A) inactive

----------
- Experiment notes: Cell Viability - LYMP2-025 (AID 976);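 note: potency is the fitted concentration of half-maximal effect; cells exposed to compound for 24 h at 37 °C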
- Cond: LYMP2-025 lymphoblastoid cell viability; series mostly up to 92.2 µM
Inconclusive results are not listed. The source made the active and inactive calls. The call rests on the fitted dose curve; in most records, active means well fitted cell-killing curve with a large enough effect; inconclusive means small, poorly fitted or top-dose-only effect; inactive means flat fitted curve, though single readings scatter.
Quantity measured: Potency

Smiles entry: O=[N+]([O-])c1cc(C(F)(F)F)cc([N+](=O)[O-])c1Cl
Potency: 50.1 µM (active)

Moving on to another compound below.
(Q) Requested read-out: Potency. Entry: C[C@@H]1CC[C@@]2(OC1)O[C@H]1[C@@H](O)[C@H]3[C@@H]4CC[C@H]5C[C@@H](O[C@@H]6O[C@H](CO)[C@H](O[C@@H]7O[C@H](CO)[C@@H](O)[C@H](O[C@@H]8OC[C@@H](O)[C@H](O)[C@H]8O)[C@H]7O[C@@H]7O[C@H](CO)[C@@H](O)[C@H](O[C@@H]8O[C@H](CO)[C@@H](O)[C@H](O)[C@H]8O)[C@H]7O)[C@H](O)[C@H]6O)[C@H](O)C[C@]5(C)[C@H]4CC[C@]3(C)[C@H]1[C@@H]2C
(A) 25.1 µM (active)

----------
- Tested on: PC26
- Experiment notes: qHTS profiling for inhibitors of Plasmodium falciparum proliferation (AID 504749); note: nearly all actives have a fitted effect of over 60% in size
- Cond: P. falciparum in erythrocytes, SYBR Green DNA, 72 h; series mostly up to 28.7 µM
Inconclusive results are not listed. Activity calls are given as the source filed them. Calls come from the whole dose curve; as a rule, active = well fitted inhibition curve with a large enough effect; inconclusive = small, poorly fitted or top-dose-only effect; inactive = flat fitted curve, though single readings scatter.
The categories you may choose from are active, inactive

(Q) Status in this test for CCCCCc1cc(O)c2c(c1)OC(C)(C)C1CC=C(C)CC21 (stereo unspecified) ?
(A) active

(Q) Status in this test for CCCN1CCCC2Cc3nc(N)ncc3CC21 (stereo unspecified) ?
(A) inactive

(Q) Status in this test for OCC(O)[C@H]1O[C@@H]2O[C@H](C(Cl)(Cl)Cl)O[C@@H]2[C@H]1O (stereo partly specified) ?
(A) inactive

(Q) Status in this test for C#CCN1CC(=O)N(COC(=O)[C@@H]2[C@@H](C=C(C)C)C2(C)C)C1=O ?
(A) inactive

(Q) Status in this test for CC1(C)S[C@@H]2[C@H](N)C(=O)N2C1C(=O)O (stereo partly specified) ?
(A) inactive

(Q) Status in this test for CCN(CC)C(=O)N[C@@H]1C=C2c3cccc4[nH]cc(c34)C[C@H]2N(C)C1 ?
(A) active

----------
- Experiment notes: Cell Viability - LYMP2-004 (AID 966);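 note: cells exposed to compound for 24 h; nearly all actives have a fitted effect of over 65% in size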; note: potency is the fitted concentration of half-maximal effect
- Cond: LYMP2-004 lymphoblastoid cell viability, qHTS; series mostly up to 92.2 µM
Results filed as inconclusive are left out. Active and inactive are the calls of the source. Calls come from the whole dose curve; as a rule, active = well fitted cell-killing curve with a large enough effect; inconclusive = small, poorly fitted or top-dose-only effect, or effect the other way; inactive = no such curve, though single readings can be large or run the other way.
Quantity measured: Potency

Compound: CN(C)c1ccc(N=O)cc1
Potency: 0.794 µM (active)
//
Compound: Clc1ccc(C(c2ccc(Cl)cc2)C(Cl)Cl)cc1
Potency: inactive
//
Compound: N#CSCSC#N
Potency: 6.31 µM (active)
//
Compound: CCCCCCCCn1sccc1=O
Potency: 3.98 µM (active)
//
Compound: OC(c1ccc(Cl)cc1)(c1ccc(Cl)cc1)C(Cl)(Cl)Cl
Potency: inactive
//
Compound: O=C(CCl)c1ccccc1
Potency: 10 µM (active)
//
Compound: Nc1ccccc1C(=O)OCCc1ccccc1
Potency: inactive
//
Compound: CC(C)CC(C)Nc1ccc(Nc2ccccc2)cc1 (stereo not drawn)
Potency: 25.1 µM (active)

(Q) Requested read-out: Potency. Entry: O=[N+]([O-])C(Br)Br
(A) 25.1 µM (active)

----------
- Experiment notes: qHTS assay for environmental chemicals that activate the Aryl hydrocarbon Receptor (AhR) signaling pathway (AID 651777); note: % of control where 0% means no effect; nearly all actives have a fitted effect of over 15% in size
- Cond: 1A2-DRE human hepatoma cells, luciferase, 24 h; stronger effect = higher value
Inconclusive results are not listed.
Below, each entry is listed alongside its reported activation.
The reply should be a number in %, with the unit left off.

Solved cases (5 shown):
Molecule: CCc1nn(C)c(C(=O)NCc2ccc(C(C)(C)C)cc2)c1Cl
activation / %: 6.31
//
Molecule: O=[N+]([O-])c1ccc(Oc2ccc(Cl)cc2Cl)cc1
activation / %: 0.167
//
Molecule: CS/C(C)=N/OC(=O)N(C)SN(C)C(=O)O/N=C(\C)SC
activation / %: 3.44
//
Molecule: CC1(C)C(C=C(Cl)Cl)[C@H]1C(=O)OCc1cccc(Oc2ccccc2)c1 (stereo not given in full)
activation / %: 0.692
//
Molecule: C=CC(=O)OCCCCCC(C)C
activation / %: -0.0847

(Q) Requested read-out: activation. Entry: CC(C)(c1ccccc1)c1cc(-n2nc3ccccc3n2)c(O)c(C(C)(C)c2ccccc2)c1
(A) -0.0851

(Q) Requested read-out: activation. Entry: CCCCOCCOC(C)=O
(A) 0.977

(Q) Requested read-out: activation. Entry: CSC(=O)c1c(C(F)F)nc(C(F)(F)F)c(C(=O)SC)c1CC(C)C
(A) 1.06

(Q) Requested read-out: activation. Entry: CCNc1nc(Cl)nc(NC(C)(C)C)n1
(A) 6.82

(Q) Requested read-out: activation. Entry: CC(c1ccc(O)cc1)(c1ccc(O)cc1)c1ccc(O)cc1
(A) -4

(Q) Requested read-out: activation. Entry: COc1nn(C(=O)NS(=O)(=O)c2ccccc2OC(F)(F)F)c(=O)n1C
(A) 1.39

(Q) Requested read-out: activation. Entry: Cc1ccc2ccccc2c1C
(A) 1.49

(Q) Requested read-out: activation. Entry: Fc1ccc(Oc2ccnc3cc(Cl)cc(Cl)c23)cc1
(A) 15

(Q) Requested read-out: activation. Entry: CCC(C)(CC)c1cc(NC(=O)c2c(OC)cccc2OC)on1
(A) 0.26

(Q) Requested read-out: activation. Entry: COc1cnc(OC)n2nc(NS(=O)(=O)c3c(OCC(F)F)cccc3C(F)(F)F)nc12
(A) 0.743
